experiment: mitochondrial membrane potential change in A549 cells, profiling panel, cell-based, JC-1 fluorescence, basal, 24 h, 100 nL (AID 1138); conditions: higher = more signal;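 note: A549 lung adenocarcinoma cells under basal conditions with no added stimulus; test concentration not given here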
Catalogue of compounds with associated z-score
Number only, no unit.

Reference set, count: 3
compound=CC(C)C(=C=CC[C@@H](O)c1ccccc1OCCO)C[C@@H](O)c1cc(Cl)cc(Cl)c1O readout=z-score quantitative_result=-1.35
compound=COCCCNC(=O)[C@@]1(Sc2ccc(C)cc2)CC(=O)N(C2CCCCC2)[C@@H]1c1ccc(CO)cc1I readout=z-score quantitative_result=0.816
compound=[N-]=[N+]=NCc1ccccc1C[C@]1(C(=O)N2CCOCC2)N=C(c2ccc(OCCCO)cc2)O[C@H]1c1ccccc1CN=[N+]=[N-] readout=z-score quantitative_result=1.68

For the next question, use this compound.
Noted for C=CCC(OC(C)=O)[C@@H]1[C@@H](N(Cc2cccc3ccccc23)C(=O)c2ccc(-c3ccccc3)cc2)c2cc(OCCCO)ccc2N1C(=O)c1ccc2ccccc2n1 (some centres undefined) : its z-score reads -0.0419

* * *

Some molecules, each annotated with its measured composite z-score.
tested on: Human papillomavirus type 1a protein E7 (residues 44-93); assay: HPV1a E7 fragment binders on microarrays, primary screen, biochemical, small-molecule microarray, residues 44-93, 635 nm fluorescence (AID 1108); details: small-molecule microarray binding, fluorescence 635 nm; higher = more signal;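 note: E7 fragment applied at 1 µg/mL in TBST for 1 h at 4 C; score combines spot fluorescence with its signal to noise ratio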
The reply should be a number, written without any unit.

These recorded examples may help you get a feel for the data.
molecule=NC(=O)[C@@]1(CCS(=O)(=O)c2ccccc2)COC(c2ccc(OCCCO)cc2)=N1 tested_on="Human papillomavirus type 1a protein E7 (residues 44-93)" readout="composite z-score" quantitative_result=-0.244
molecule=CCOC(=O)C1=CC[C@@H](c2ccccc2)N(S(=O)(=O)C[Si](C)(C)C)[C@H]1c1ccccc1 tested_on="Human papillomavirus type 1a protein E7 (residues 44-93)" readout="composite z-score" quantitative_result=1.38
molecule=C=CCOC(=O)[C@H]1[C@@H]2C(=O)O[C@@H](c3ccccc3)[C@@H](c3ccccc3)N2[C@@H](c2ccc(OCCOC(=O)[C@H]3C[C@H]4C(=O)NCC(=O)N4[C@H]3c3ccc(O)cc3)cc2)[C@]12C(=O)Nc1ccc(I)cc12 tested_on="Human papillomavirus type 1a protein E7 (residues 44-93)" readout="composite z-score" quantitative_result=0.429
molecule=CC(C)=CCN(C(=O)C#Cc1ccccc1)[C@H](CO)c1ccccc1 tested_on="Human papillomavirus type 1a protein E7 (residues 44-93)" readout="composite z-score" quantitative_result=1.16
molecule="C=CCC(OC(C)=O)[C@@H]1[C@@H](N(Cc2cc3ccccc3o2)C(=O)c2ccc(-c3ccccc3)cc2)c2cc(OCCCO)ccc2N1C(=O)c1ccc2ccccc2n1 (stereo partly specified)" tested_on="Human papillomavirus type 1a protein E7 (residues 44-93)" readout="composite z-score" quantitative_result=0.061

Would you kindly look at the next entry?
The molecule listed as C=CCOC(=O)[C@H]1[C@@H]2C(=O)O[C@@H](c3ccccc3)[C@@H](c3ccccc3)N2[C@@H](c2ccc(OCCOC(=O)[C@@H]3C[C@@H]4C(=O)N[C@@H](Cc5ccccc5)C(=O)N4[C@@H]3c3ccc(O)cc3)cc2)[C@]12C(=O)Nc1ccccc12 has a reported composite z-score of 1.35

* * *

assay: inhibitors of hydroxyurea-induced Chk1 phosphorylation, primary screen, imaging, HeLa, phospho-Chk1 nuclear intensity (AID 1187); settings: hydroxyurea-induced phospho-Chk1 immunofluorescence imaging, higher = more signal; note: test concentration not given here
z-score overview
Respond with the number and no other words.

As a guide, the following entries are already answered.
compound=COc1ccc([Si](C)(C)[C@H]2[C@H](CCn3cc([C@H](O)c4ccccc4)nn3)O[C@@]3(C(=O)N(c4ccccc4)c4ccccc43)[C@@H]2C)cc1 quantitative_result=-0.513
compound=C=C(COC)C(=O)CC[C@@H](OC(C)=O)c1ccc(OCCO)cc1 quantitative_result=0.241
compound=C=C(C(=O)CC[C@@H](OC(C)=O)c1cccc(OCCO)c1)C(C)C quantitative_result=0.158
compound=O=C1N(Cc2ccccc2)c2ccccc2[C@H]2OC(c3ccc(OCCCO)cc3)=N[C@@]12Cc1ccccc1 quantitative_result=-0.59
compound="C=CCC(OC(C)=O)[C@@H]1[C@@H](N(Cc2ccc(-c3ccccc3)cc2)C(=O)c2ccc(-c3ccccc3)cc2)c2cc(OCCCO)ccc2N1C(=O)c1ccc2ccccc2n1 (stereo not given in full)" quantitative_result=0.352
compound="CCN(CC)c1ccc(N2CC=CC34O[C@@H]5C=CCOC(=O)[C@@H]5[C@H]3C(=O)N(CCCO)[C@@H]4C2=O)cc1 (stereo not given in full)" quantitative_result=-0.569
compound=COc1ccc(CCNC(=O)[C@@]2(Sc3ccc(C)cc3)CC(=O)N(Cc3cc(C(F)(F)F)cc(C(F)(F)F)c3)[C@@H]2c2ccc(CO)cc2)cc1 quantitative_result=0.282
compound=COCCOC(=O)N1C(=O)[C@@]2(c3cc(C#CCCO)ccc31)[C@H](c1ccc(O)cc1)N1[C@H](c3ccccc3)[C@H](c3ccccc3)OC(=O)[C@H]1[C@@H]2C(=O)N1CCc2cc(OC)c(OC)cc2C1 quantitative_result=0.0613
compound=CN(C)C(=O)[C@@]1(CCS(=O)(=O)c2ccccc2)N=C(c2ccc(OCCCO)cc2)O[C@H]1c1ccccc1N=[N+]=[N-] quantitative_result=-0.701
compound="CCCCN1CC=CC23O[C@@H]4/C=C\\CCC(C)OC(=O)C4[C@H]2C(=O)N(C(C)CO)[C@@H]3C1=O (stereo not given in full)" quantitative_result=0.632

The compound listed as CCCC=C(CCC)[C@@H](NC(=O)c1ccccc1)c1ccc(C(=O)OC)cc1 has a reported z-score of 0.204
